Target: human AspH (His6-AspH315–758) (Homo sapiens, UniProt Q12797)
Construct: N-Terminally His6-tagged human AspH315–758 (His6-AspH315–758) was produced in Escherichia coli BL21 (DE3) cells; made in house; host or cells: Escherichia coli BL21 (DE3), pET-28a(+) vector
Test: SPE-MS AspH inhibition assay (hFX-CP101-119 substrate hydroxylation)
Type: biochemical
Details: AspH-inhibitor screening, 384-well Plate 1, substrate conversion
Structures can show the parent of a compound that is named as a salt.
Here the recorded Plate 1 (% conversion) is given for each entry.

>  <COMPOUND>
CC[C@H](Nc1ncnc2[nH]cnc12)c1nc2cccc(F)c2c(=O)n1-c1ccccc1 [CAL-101]

>  <READOUT UNIT>
%

>  <Plate 1 (% conversion)>
47.31

$$$$
>  <COMPOUND>
CC(=O)[C@]1(O)Cc2c(O)c3c(c(O)c2[C@@H](O[C@H]2C[C@H](N)[C@H](O)[C@H](C)O2)C1)C(=O)c1ccccc1C3=O [Idarubicin HCl]

>  <READOUT UNIT>
%

>  <Plate 1 (% conversion)>
46.69

$$$$
>  <COMPOUND>
O=NN(CCCl)C(=O)NC1CCCCC1 [Lomustine]

>  <READOUT UNIT>
%

>  <Plate 1 (% conversion)>
45.19

$$$$
>  <COMPOUND>
CC(=O)O[C@]1(C(C)=O)CC[C@H]2[C@@H]3C=C(C)C4=CC(=O)CC[C@]4(C)[C@H]3CC[C@@]21C [Megestrol acetate]

>  <READOUT UNIT>
%

>  <Plate 1 (% conversion)>
56.45

$$$$
>  <COMPOUND>
CO[C@H]1C[C@@H]2CC[C@@H](C)[C@@](O)(O2)C(=O)C(=O)N2CCCC[C@H]2C(=O)O[C@H]([C@H](C)C[C@@H]2CC[C@@H](O)[C@H](OC)C2)CC(=O)[C@H](C)/C=C(\C)[C@@H](O)[C@@H](OC)C(=O)[C@H](C)C[C@H](C)/C=C/C=C/C=C/1C [Rapamycin (sirolimus)]

>  <READOUT UNIT>
%

>  <Plate 1 (% conversion)>
57.34

$$$$
>  <COMPOUND>
CCN1CCN(c2ccc(Nc3cc(N(C)C(=O)Nc4c(Cl)c(OC)cc(OC)c4Cl)ncn3)cc2)CC1 [NVP-BGJ398]

>  <READOUT UNIT>
%

>  <Plate 1 (% conversion)>
51.64

$$$$
>  <COMPOUND>
Cc1cc2c(F)c(Oc3ncnn4cc(OC[C@@H](C)O)c(C)c34)ccc2[nH]1 [Brivanib]

>  <READOUT UNIT>
%

>  <Plate 1 (% conversion)>
46.53

$$$$
>  <COMPOUND>
S=P(N1CC1)(N1CC1)N1CC1 [Thio-TEPA]

>  <READOUT UNIT>
%

>  <Plate 1 (% conversion)>
41.53

$$$$
>  <COMPOUND>
Nc1cccc2c1C(=O)N(C1CCC(=O)NC1=O)C2=O (stereo not shown) [Pomalidomide]

>  <READOUT UNIT>
%

>  <Plate 1 (% conversion)>
49.35

$$$$
>  <COMPOUND>
O=C(c1ccc(F)c(F)c1Nc1ccc(I)cc1F)N1CC(O)([C@@H]2CCCCN2)C1 [Cobimetinib]

>  <READOUT UNIT>
%

>  <Plate 1 (% conversion)>
52.49

$$$$
>  <COMPOUND>
Nc1ncn([C@H]2C[C@H](O)[C@@H](CO)O2)c(=O)n1 [Decitabine (Dacogen)]

>  <READOUT UNIT>
%

>  <Plate 1 (% conversion)>
47.83

$$$$
>  <COMPOUND>
CC(C)(C#N)c1cc(Cn2cncn2)cc(C(C)(C)C#N)c1 [Anastrozole]

>  <READOUT UNIT>
%

>  <Plate 1 (% conversion)>
48.67

$$$$
>  <COMPOUND>
Cn1c(=O)n(-c2ccc(C(C)(C)C#N)cc2)c2c3cc(-c4cnc5ccccc5c4)ccc3ncc21 [NVP-BEZ235_Dactolisib]

>  <READOUT UNIT>
%

>  <Plate 1 (% conversion)>
47.38

$$$$
>  <COMPOUND>
CCc1c(C(=O)C(N)=O)c2c(OCC(=O)O)cccc2n1Cc1ccccc1 [Varespladib]

>  <READOUT UNIT>
%

>  <Plate 1 (% conversion)>
45.21

$$$$
>  <COMPOUND>
Cc1ccc(Nc2nccc(N(C)c3ccc4c(C)n(C)nc4c3)n2)cc1S(N)(=O)=O.Cl [Pazopanib hydrochloride]

>  <READOUT UNIT>
%

>  <Plate 1 (% conversion)>
49.92

$$$$
>  <COMPOUND>
CC(O)(CS(=O)(=O)c1ccc(F)cc1)C(=O)Nc1ccc(C#N)c(C(F)(F)F)c1 (stereo not shown) [Bicalutamide]

>  <READOUT UNIT>
%

>  <Plate 1 (% conversion)>
50.76

$$$$
>  <COMPOUND>
CC(C)C[C@H](NC(=O)[C@H](CCc1ccccc1)NC(=O)CN1CCOCC1)C(=O)N[C@@H](Cc1ccccc1)C(=O)N[C@@H](CC(C)C)C(=O)[C@@]1(C)CO1 [Carfilzomib]

>  <READOUT UNIT>
%

>  <Plate 1 (% conversion)>
50.75

$$$$
>  <COMPOUND>
C[C@]1(O)C[C@@H](c2nc(-c3ccc4ccc(-c5ccccc5)nc4c3)c3c(N)nccn32)C1 [OSI-906_Linsitinib]

>  <READOUT UNIT>
%

>  <Plate 1 (% conversion)>
47.60

$$$$
>  <COMPOUND>
Nc1nc2nc[nH]c2c(=S)[nH]1 [Thioguanine]

>  <READOUT UNIT>
%

>  <Plate 1 (% conversion)>
46.39

$$$$

* * *

Target: human AspH (His6-AspH315–758) (Homo sapiens, UniProt Q12797)
Construct: N-Terminally His6-tagged human AspH315–758 (His6-AspH315–758) was produced in Escherichia coli BL21 (DE3) cells; made in house; host or cells: Escherichia coli BL21 (DE3), pET-28a(+) vector
Test: SPE-MS AspH inhibition assay (hFX-CP101-119 substrate hydroxylation)
Type: biochemical
Conditions: AspH-inhibitor screening, Plate 1-duplicate
Counter-ions that a name gives are not always drawn.
The following molecules are shown together with reported Plate 1-duplicate (% inhibition) values.
VALUE TYPE: Plate 1-duplicate (% inhibition) (%)

>  <MOLECULE>
Cc1c(C(=O)Nc2ccc(N3C[C@@H](C)O[C@@H](C)C3)nc2)cccc1-c1ccc(OC(F)(F)F)cc1.O=P(O)(O)O.O=P(O)(O)O [NVP-LDE225 (Diphosphate salt)]

>  <VALUE TYPE>
Plate 1-duplicate (% inhibition)

>  <MEASUREMENT>
-19.69

$$$$
>  <MOLECULE>
N.N.O=C([O-])C1(C(=O)[O-])CCC1.[Pt+2]

>  <VALUE TYPE>
Plate 1-duplicate (% inhibition)

>  <MEASUREMENT>
9.11

$$$$
>  <MOLECULE>
Nc1ccn([C@@H]2O[C@H](CO)[C@@H](O)C2(F)F)c(=O)n1 [Gemcitabine hydrochloride]

>  <VALUE TYPE>
Plate 1-duplicate (% inhibition)

>  <MEASUREMENT>
10.34

$$$$
>  <MOLECULE>
N[C@@H](Cc1ccc(N(CCCl)CCCl)cc1)C(=O)O

>  <VALUE TYPE>
Plate 1-duplicate (% inhibition)

>  <MEASUREMENT>
3.88

$$$$
>  <MOLECULE>
CCc1cc2c(cc1N1CCC(N3CCOCC3)CC1)C(C)(C)c1[nH]c3cc(C#N)ccc3c1C2=O

>  <VALUE TYPE>
Plate 1-duplicate (% inhibition)

>  <MEASUREMENT>
8.49

$$$$

* * *

Entries annotated with measured Plate 1-duplicate (% inhibition)
Target: human AspH (His6-AspH315–758) (Homo sapiens)
Construct: N-Terminally His6-tagged human AspH315–758 (His6-AspH315–758) was produced in Escherichia coli BL21 (DE3) cells; made in house; host or cells: Escherichia coli BL21 (DE3), pET-28a(+) vector
Sequence (Q12797 315-758): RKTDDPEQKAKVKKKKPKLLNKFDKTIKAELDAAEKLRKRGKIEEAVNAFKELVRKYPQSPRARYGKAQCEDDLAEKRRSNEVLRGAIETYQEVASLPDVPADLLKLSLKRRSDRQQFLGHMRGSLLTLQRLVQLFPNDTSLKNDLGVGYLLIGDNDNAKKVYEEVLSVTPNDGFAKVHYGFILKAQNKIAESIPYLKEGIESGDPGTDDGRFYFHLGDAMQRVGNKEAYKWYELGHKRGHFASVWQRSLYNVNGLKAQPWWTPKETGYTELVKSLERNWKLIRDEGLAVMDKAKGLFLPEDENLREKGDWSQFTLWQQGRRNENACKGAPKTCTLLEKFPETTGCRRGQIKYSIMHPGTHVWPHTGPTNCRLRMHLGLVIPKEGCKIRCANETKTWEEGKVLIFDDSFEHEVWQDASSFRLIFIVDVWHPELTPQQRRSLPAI
Assay: SPE-MS AspH inhibition assay (hFX-CP101-119 substrate hydroxylation)
Format: biochemical
Details: AspH-inhibitor screening, Plate 1-duplicate

>  <COMPOUND>
Cn1cnc2c(F)c(Nc3ccc(Br)cc3Cl)c(C(=O)NOCCO)cc21 [AZD6244 (Selumetinib)]

>  <EXPERIMENTAL TARGET>
human AspH (His6-AspH315–758) (Homo sapiens)

>  <Plate 1-duplicate (% inhibition) (%)>
5.57

$$$$
>  <COMPOUND>
CO[C@H]1/C=C\C=C(/C)C(=O)NC2=CC(=O)C(NCCN(C)C)=C(C[C@@H](C)C[C@H](OC)[C@H](O)[C@@H](C)/C=C(\C)[C@@H]1OC(N)=O)C2=O [17-DMAG (Alvespimycin)]

>  <EXPERIMENTAL TARGET>
human AspH (His6-AspH315–758) (Homo sapiens)

>  <Plate 1-duplicate (% inhibition) (%)>
-6.36

$$$$
>  <COMPOUND>
CNC(=O)c1cc(Oc2ccc(NC(=O)Nc3cc(C(C)(C)C)nn3-c3ccc4ncccc4c3)c(F)c2)ccn1 [DCC-2036_Rebastinib]

>  <EXPERIMENTAL TARGET>
human AspH (His6-AspH315–758) (Homo sapiens)

>  <Plate 1-duplicate (% inhibition) (%)>
3.62

$$$$
>  <COMPOUND>
Cc1c(C(=O)Nc2ccc(N3C[C@@H](C)O[C@@H](C)C3)nc2)cccc1-c1ccc(OC(F)(F)F)cc1 [Erismodegib]

>  <EXPERIMENTAL TARGET>
human AspH (His6-AspH315–758) (Homo sapiens)

>  <Plate 1-duplicate (% inhibition) (%)>
-6.71

$$$$
>  <COMPOUND>
C/C=C1\NC(=O)[C@H]2CSSCC/C=C/[C@H](CC(=O)N[C@H](C(C)C)C(=O)N2)OC(=O)[C@H](C(C)C)NC1=O [Romidepsin]

>  <EXPERIMENTAL TARGET>
human AspH (His6-AspH315–758) (Homo sapiens)

>  <Plate 1-duplicate (% inhibition) (%)>
29.51

$$$$

Data origin: paper PMC7588595
